Below, each entry is listed alongside its reported HCT-116 % Inhibition at 0.1 μM.
System: HCT-116 cell line
Assay: Inhibition of cell growth, MTT tetrazolium salt assay
Assay type: cell-based
Settings: HCT-116, at 0.1 μM

compound: C[C@H](NC(=O)c1ccc(Nc2nc(N)c(C(=O)c3c(F)cccc3F)s2)cc1)c1ccccc1 [Example G167]
tested_on: HCT-116 cell line
HCT-116 % Inhibition at 0.1 μM: 26%
//
compound: CCC(NC(=O)c1ccc(Nc2nc(N)c(C(=O)c3c(F)cccc3F)s2)cc1)c1ccccc1 (stereo not shown) [Example G151]
tested_on: HCT-116 cell line
HCT-116 % Inhibition at 0.1 μM: 27%
//
compound: COc1ccc(CNC(=O)c2ccc(Nc3nc(N)c(C(=O)c4c(F)cccc4F)s3)cc2)cc1 [Example G169]
tested_on: HCT-116 cell line
HCT-116 % Inhibition at 0.1 μM: 32%

Let's switch to this compound now.
Q: Looking for the measured HCT-116 % Inhibition at 0.1 μM of Cc1ccc(CCNC(=O)c2ccc(Nc3nc(N)c(C(=O)c4c(F)cccc4F)s3)cc2)cc1 [Example G111] , can you help?
A: 0%
